meta.source: the kinase profiling compilation of Christmann-Franck et al. (2016)

# Test system: EGFR (human), P00533 [A750P; 747-749 del]
# Test method notes: KINOMEscan competition binding
# Test conditions: compound 10.0 µM
Value type: kinase still bound, per cent of control (%)
One number for each entry, in %.

Items follow; give kinase still bound, per cent of control for each.
1. C[C@@H](Oc1cc(-n2cnc3ccc(CN4CCN(C)CC4)cc32)sc1C(N)=O)c1ccccc1C(F)(F)F
2. O=c1cc(N2CCOCC2)oc2c(-c3cccc4c3sc3ccccc34)cccc12
3. Cc1ccc(C(=O)Nc2cccc(C(F)(F)F)c2)cc1Nc1cncc(C(N)=O)c1
4. Cc1ccc2nc(NCCN)c3ncc(C)n3c2c1
5. COc1cc(N2CCN(C)CC2)ccc1Nc1nc(N)c(C(=O)c2c(Cl)cccc2Cl)s1
6. C=CC(=O)Nc1cccc(Nc2nc(N[C@H]3CC[C@H](N(C)C)CC3)nc3c2ncn3C(C)C)c1
7. CCOc1cc(N2CCC(O)CC2)ccc1Nc1ncc2c(n1)N(C)c1ccccc1C(=O)N2C

Reply:
1. 81
2. 91
3. 100
4. 100
5. 100
6. 76
7. 100

Items follow; give kinase still bound, per cent of control for each.
1. COc1cc2ncn(-c3cc(OCc4ccccc4C(F)(F)F)c(C(N)=O)s3)c2cc1OC
2. CNC(=O)Nc1ccc(-c2nc(N3CC4CCC(C3)O4)c3cnn(C4CCC5(CC4)OCCO5)c3n2)cc1

Reply:
[50, 52]
